Tested on: MCF7 breast
PROTOCOL_NOTES: NCI-60 one-dose screen, 48 h (100 = growth as untreated, 0 = no growth, -100 = all killed)
REPORTED_CONDITIONS: 10 µM unless noted
This is part of a sample that, as a whole, favours compounds with a hit. Of some 83,000 tested, about 20% had one in any assay.
RECORDED_METRIC: growth (%)
Only the number, expressed in %, is required.

Look up growth: "O=C1OC(c2ccc(-c3ccccc3)cc2)=C/C1=C/c1c2ccccc2cc2ccccc12"
83.9

Consider next the molecule "CCCCCCCCCCCCCCCCNC(=O)Nc1ccc(C)c(NC(=O)NCCCCCCCCCCCCCCCC)c1" in the same way.
101

Can you handle "CCOC(=O)c1cc(-c2ccc(OC)cc2)[nH]c1NNC(=O)CCOC" next?
113

Same thing, different molecule: "COCn1c(C(=O)OC)cc2oc(/C=C3/SC(=S)N(N)C3=O)cc21"
97

Note, next up: "CC(=O)Nc1ccc(C(=O)/C=C/c2ccc(N(C)C)cc2)cc1"
78.3

Here is the next molecule: "CCCCCCCCCCCCOC(=O)/C=C\C(=O)NC(N)=O"
64.3

Okay, and "COc1cc(-c2nn(-c3ccc(NC(=O)Nc4ccc(Cl)c(Cl)c4)cc3)cc2-c2ccncc2)ccc1Cl" ?
28.4

Now this one: "CCCC[N+](C)(N)CCCC"
97.7

Ok, now "COc1ccccc1C(=O)Nc1cccc(-c2cc(=O)c3c(OC)c(OC)c(OC)cc3o2)c1"
53.4

Also, "C/C(CCC(=O)O)=N/Nc1ccc([N+](=O)[O-])cc1" please.
65.2

// next record CC(=O)C(CO)C(=O)Nc1ccccc1 (stereo not given)
91.5

Now the molecule "CNc1ccc(Nc2ccc(S(=O)(=O)O)cc2)c2c1C(=O)c1ccccc1C2=O"
97

Repeat for the following molecule: Nc1nc2c(c3cnccc13)C(c1cccc(Br)c1)Cc1cnccc1-2 (stereo not given)
11.5

Further, for CCC(C)C1NC(=O)C(CC(C)C)NC(=O)C(C)NC(=O)C(C(C)C)NC(=O)C(CCCCN)NC(=O)C(CC(C)C)NC(=O)C(C(C)C)NC(=O)[C@H](C)NC(=O)C(C(C)CC)NC(=O)C(CCCN=C(N)N)NC(=O)C(CCCCN)NC(=O)C(CCCN=C(N)N)NC(=O)C(CCCCN)NC(=O)C([C@H](C)CC)NC(=O)C(CCCCN)NC1=O (stereo not given in full) ?
20.5

Check CCCCN(CCCC)CC(O)CN(CC)CC (stereo not given) too.
96

Quick one: "CCOC(=O)c1c(C)oc2ncnc(Nc3ccc(C(=O)NCCc4ccccc4)cc3)c12"
78.6

One more molecule: O=C(O)CC1Cc2ccccc2C1C(=O)O (stereo not given)
105

Queued: "CN(CCC#N)c1ccc(/C=C(\C#N)c2cccc(C(F)(F)F)c2)cc1"
34.2

Same for "CC1=NN(c2cccc(Cl)c2)C(=O)/C1=C\c1cn(-c2nc(N3CCOCC3)nc(N3CCOCC3)n2)c2ccccc12"
98.9

Could you do the same for "O=C1c2ccccc2CCc2ccccc21" , please?
94.9
